system: BT-549 breast; experiment: NCI tumour cell line growth inhibition, 48 h
Listed here: items and their measured TGI.

As a guide, the following entries are already answered.
| MOLECULE | TGI |
| --- | --- |
| Cc1cc(C)c2c(=O)cc(-c3ccc(F)cc3)[nH]c2n1 | > 100 µM |
| O=c1[nH]ncc2[nH]c(-c3ccccc3)cc12 | > 100 µM |
| CC(=O)N[C@@H](Cc1ccc(OP(=O)(O)O)cc1)C(=O)N[C@H]1CCC(=O)N2CCC[C@@H](C(=O)NCc3cccc4ccccc34)N2C1=O | > 25 µM |

What value of TGI has been recorded for this entry: `NNC(=S)N/N=C/c1ccccn1` > 100 µM

// returns reported TGI for input `CSc1nc(SC)c2c(C)cn(Cc3ccccc3)c2n1` > 100 µM

Requested read-out: TGI. Entry: `C/C(CC(O)(C(F)(F)Cl)C(F)(F)Cl)=N\Nc1ccccc1` > 100 µM

Looking for the measured TGI of `NC(=S)Nc1c(S(N)(=O)=O)cc(S(N)(=O)=O)c(Cl)c1Cl` , can you help? > 100 µM

Which TGI is reported for this molecule? `COc1cc(S(=O)(=O)Nc2ccc(-c3csc(/N=C\c4ccccc4O)n3)cc2)ccc1Cl` > 100 µM

GET /values?readout=TGI&item= `CNC(=S)N/N=C(\C)c1cc(OC)c(OC)cc1O` > 100 µM

Entry `CCOC(=O)C(=NN(C)c1ncccc1N)C(=O)OCC` : reported TGI = ? > 100 µM

Quick check: TGI of Cc1nn(C(=O)c2ccc(Cl)cc2)c2c1C(c1ccccc1)SC(N)=N2 (configuration not stated) ? > 10 µM

Recorded TGI of `N#Cc1nc(N)c(C#N)[nH]1` , please. > 100 µM

====

test system: OVCAR-5 ovarian; test: NCI tumour cell line growth inhibition, 48 h
ASSAY METRIC: TGI

| COMPOUND | MEASUREMENT |
| --- | --- |
| COc1cc(C)cc(C(=O)OCc2ccccc2)c1C1=C(Cl)C(=O)C(Cl)=CC1=O | > 10 µM |

Shift focus to the following entry.
Please give the measured TGI for this compound: `COc1ccc2cc(NC(=O)Nn3cnnc3)ccc2c1` > 100 µM

====

# key: entry, value: TGI
system: A549 NSCLC; assay: NCI tumour cell line growth inhibition, 48 h

Example cases with answers are listed next.
| COMPOUND | MEASUREMENT |
| --- | --- |
| CC1NC(=O)c2c(-c3ccccc3)nn(-c3ccccc3)c2NC1=O (stereo not given) | > 100 µM |
| C=C1CC2(C)CCC(OC(=O)C3(C)OC3C)C(C)(OC(C)=O)C2CC1=C(C)C (stereo not given) | > 100 µM |
| CNc1cccc(-c2cc(=O)c3cc4c(cc3[nH]2)OCO4)c1 | > 91.8 µM |
| O=C1CNC(=O)N1 | > 1120 µM |

// next entry
Param item = `Cc1cc(C)c2c(=O)cc(-c3ccc(F)cc3)[nH]c2n1` ; retrieve measured TGI. > 100 µM

====

tested on: MDA-N; assay: NCI tumour cell line growth inhibition, 48 h
ASSAY METRIC: TGI

Solved cases (3 shown):
| MOLECULE | TGI |
| --- | --- |
| COc1ccc(/C=C2\N=C(N3CCOCC3)NC2=O)cc1 | > 100 µM |
| O=C(O)[C@@]1(Cc2ccc(O)cc2)C[C@@H]2Cc3ccccc3N2N1 | > 100 µM |
| CC(=O)OC12c3ccccc3C(c3ccccc31)C1C(=O)N(Nc3ccccc3)C(=O)C12 (centres undefined) | > 100 µM |

// switching to the query molecule
Please tell me: TGI of `COc1ccc(NS(=O)(=O)c2ccc3ncn(NS(=O)(=O)c4ccc(I)cc4)c(=O)c3c2)cc1` , system MDA-N? > 100 µM
